- Test system: S. aureus USA 300
- Assay Details: Minimal inhibitory concentration, microbroth dilution
- Format: cell-based
- Reported Conditions: Staphylococcus aureus, USA300, read-out: Minimal Inhibitory Concentrations (μM) S. aureus USA 300, MIC
Numbered stars: 1 amine (or outer) side, 2 acyl side, 3 side chain; on linkers, the order of the positions; unused ones are H or OH. Bridge positions count the residues as written; N and C are the ends. Square brackets hold non-standard residues; d marks the D form. Peptide text beside a SMILES is read from it. * marks the point of attachment. X5 = O=C([C@@H]1C[C@@H](OP(=O)(O)O)CN1[*:1])[*:2]; Piperazine(2S-CO,4-Me) = CN1CCN[C@H](C(=O)O)C1; Phe(3-Me) = Cc1cccc(C[C@H](N)C(=O)O)c1; Pro(4S-Me) = C[C@@H]1CN[C@H](C(=O)O)C1; NH(4-Cl-2-F-phenyl) = Fc1cc(Cl)ccc1N*; Pro(4R-Me) = C[C@H]1CN[C@H](C(=O)O)C1; Hyp = O=C(O)[C@@H]1C[C@@H](O)CN1; NH(3-Cl-phenyl) = Clc1cccc(N*)c1; aThr = C[C@H](O)[C@H](N)C(=O)O; Pip = O=C(O)[C@@H]1CCCCN1; 4Abz = Nc1ccc(C(=O)O)cc1; CO = O=C([*:1])[*:2]
# MIC listing for each entry below

{"Molecule": "Cc1cccc(C[C@H](NC(=O)Nc2cccc(Cl)c2)C(=O)N[C@@H]2C(=O)N3C[C@H](O)C[C@H]3C(=O)N3CCCC[C@H]3C(=O)N[C@@H](C)C(=O)N3C[C@H](C)C[C@H]3C(=O)O[C@H]2C)c1 [Compound 62] ({NH(3-Cl-phenyl)-CO}-[Phe(3-Me)][aThr][Hyp][Pip]A[Pro(4R-Me)]; ester 2-C)", "MIC": "0.625 µM"}
{"Molecule": "Cc1cccc(C[C@H](NC(=O)Nc2ccc(Cl)cc2)C(=O)N[C@H]2COC(=O)[C@@H]3C[C@H](C)CN3C(=O)[C@H](C)NC(=O)[C@@H]3CCCCN3C(=O)[C@@H]3CCCN3C2=O)c1", "MIC": "2.5 µM"}
{"Molecule": "Cc1cccc(C[C@H](NC(=O)Nc2cccc(Cl)c2)C(=O)N[C@@H]2C(=O)N3C[C@H](O)C[C@H]3C(=O)N3CCN(C)C[C@H]3C(=O)N[C@@H](C)C(=O)N3C[C@H](C)C[C@H]3C(=O)O[C@H]2C)c1 [Compound 69] ({NH(3-Cl-phenyl)-CO}-[Phe(3-Me)][aThr][Hyp][Piperazine(2S-CO,4-Me)]A[Pro(4R-Me)]; ester 2-C)", "MIC": "2.5 µM"}
{"Molecule": "Cc1cccc(C[C@H](NC(=O)Nc2cccc(Cl)c2)C(=O)N[C@@H]2C(=O)N3C[C@H](O)C[C@H]3C(=O)N3CCCC[C@H]3C(=O)N[C@@H](C)C(=O)N3C[C@@H](C)C[C@H]3C(=O)O[C@H]2C)c1 [Compound 67] ({NH(3-Cl-phenyl)-CO}-[Phe(3-Me)][aThr][Hyp][Pip]A[Pro(4S-Me)]; ester 2-C)", "MIC": "2.5 µM"}
{"Molecule": "Cc1cccc(C[C@H](NC(=O)Nc2ccc(Cl)cc2F)C(=O)N[C@@H]2C(=O)N3C[C@H](OP(=O)(O)O)C[C@H]3C(=O)N3CCCC[C@H]3C(=O)N[C@@H](C)C(=O)N3C[C@H](C)C[C@H]3C(=O)O[C@H]2C)c1 [Compound 29] ({NH(4-Cl-2-F-phenyl)-CO}-[Phe(3-Me)][aThr][X5][Pip]A[Pro(4R-Me)]; ester 2-C)", "MIC": "10 µM"}
{"Molecule": "CCOC(=O)c1ccc(NC(=O)N[C@@H](Cc2cccc(C)c2)C(=O)N[C@@H]2C(=O)N3C[C@H](O)C[C@H]3C(=O)N3CCCC[C@H]3C(=O)N[C@@H](C)C(=O)N3C[C@H](C)C[C@H]3C(=O)O[C@H]2C)cc1 [Compound 36] ({OEt-4Abz-CO}-[Phe(3-Me)][aThr][Hyp][Pip]A[Pro(4R-Me)]; ester 2-C)", "MIC": "2.5 µM"}

###

Each entry below carries its reported Human.
- Assay Details: Microsomal metabolic stability
- Assay type: in vitro ADME, human
- Reported Conditions: microsomal metabolic stability half-life, human liver microsomes
Numbered stars: 1 amine (or outer) side, 2 acyl side, 3 side chain; on linkers, the order of the positions; unused ones are H or OH. Bridge positions count the residues as written; N and C are the ends. Square brackets hold non-standard residues; d marks the D form. Peptide text beside a SMILES is read from it. * marks the point of attachment. X5 = O=C([C@@H]1C[C@@H](OP(=O)(O)O)CN1[*:1])[*:2]; Piperazine(2S-CO,4-Me) = CN1CCN[C@H](C(=O)O)C1; Phe(3,5-Me2) = Cc1cc(C)cc(C[C@H](N)C(=O)O)c1; Phe(3-Me) = Cc1cccc(C[C@H](N)C(=O)O)c1; Pro(4S-Me) = C[C@@H]1CN[C@H](C(=O)O)C1; NH(4-Cl-2-F-phenyl) = Fc1cc(Cl)ccc1N*; Pro(4R-Me) = C[C@H]1CN[C@H](C(=O)O)C1; Hyp = O=C(O)[C@@H]1C[C@@H](O)CN1; NH(4-Me-phenyl) = Cc1ccc(N*)cc1; aThr = C[C@H](O)[C@H](N)C(=O)O; Pip = O=C(O)[C@@H]1CCCCN1; CO = O=C([*:1])[*:2]

{"Molecule": "Cc1ccc(NC(=O)N[C@@H](Cc2cccc(C)c2)C(=O)N[C@@H]2C(=O)N3CCC[C@H]3C(=O)N3CCCC[C@H]3C(=O)N[C@@H](C)C(=O)N3C[C@@H](C)C[C@H]3C(=O)O[C@H]2C)cc1 [Compound 45] ({NH(4-Me-phenyl)-CO}-[Phe(3-Me)][aThr]P[Pip]A[Pro(4S-Me)]; ester 2-C)", "Result Operator": "=", "Human (h)": 2.77}
{"Molecule": "Cc1cccc(C[C@H](NC(=O)Nc2ccc(Cl)cc2F)C(=O)N[C@@H]2C(=O)N3C[C@H](OP(=O)(O)O)C[C@H]3C(=O)N3CCCC[C@H]3C(=O)N[C@@H](C)C(=O)N3C[C@H](C)C[C@H]3C(=O)O[C@H]2C)c1 [Compound 29] ({NH(4-Cl-2-F-phenyl)-CO}-[Phe(3-Me)][aThr][X5][Pip]A[Pro(4R-Me)]; ester 2-C)", "Result Operator": ">", "Human (h)": 4}
{"Molecule": "Cc1ccc(NC(=O)N[C@@H](Cc2cc(C)cc(C)c2)C(=O)N[C@@H]2C(=O)N3CCC[C@H]3C(=O)N3CCCC[C@H]3C(=O)N[C@@H](C)C(=O)N3C[C@H](C)C[C@H]3C(=O)O[C@H]2C)cc1 [Compound 2] ({NH(4-Me-phenyl)-CO}-[Phe(3,5-Me2)][aThr]P[Pip]A[Pro(4R-Me)]; ester 2-C)", "Result Operator": "=", "Human (h)": 0.62}
{"Molecule": "Cc1ccc(NC(=O)N[C@@H](Cc2cccc(C)c2)C(=O)N[C@H]2COC(=O)[C@@H]3C[C@H](C)CN3C(=O)[C@H](C)NC(=O)[C@@H]3CCCCN3C(=O)[C@@H]3CCCN3C2=O)cc1 (stereo in doubt)", "Result Operator": "=", "Human (h)": 1.36}
{"Molecule": "Cc1ccc(NC(=O)N[C@@H](Cc2cccc(C)c2)C(=O)N[C@H]2COC(=O)[C@@H]3C[C@@H](C)CN3C(=O)[C@H](C)NC(=O)[C@@H]3CN(C)CCN3C(=O)[C@@H]3CCCN3C2=O)cc1 [Compound 15] ({NH(4-Me-phenyl)-CO}-[Phe(3-Me)]SP[Piperazine(2S-CO,4-Me)]A[Pro(4R-Me)]; ester 2-C)", "Result Operator": "=", "Human (h)": 0.67}
{"Molecule": "Cc1ccc(NC(=O)N[C@@H](Cc2cccc(C)c2)C(=O)N[C@@H]2C(=O)N3CCC[C@H]3C(=O)N3CCCC[C@H]3C(=O)N[C@@H](C)C(=O)N3C[C@H](C)C[C@H]3C(=O)O[C@H]2C)cc1 [Compound 1] ({NH(4-Me-phenyl)-CO}-[Phe(3-Me)][aThr]P[Pip]A[Pro(4R-Me)]; ester 2-C)", "Result Operator": "=", "Human (h)": 11.45}
{"Molecule": "Cc1ccc(NC(=O)N[C@@H](Cc2cccc(C)c2)C(=O)N[C@@H]2C(=O)N3C[C@H](O)C[C@H]3C(=O)N3CCCC[C@H]3C(=O)N[C@@H](C)C(=O)N3C[C@H](C)C[C@H]3C(=O)O[C@H]2C)cc1 [Compound 26] ({NH(4-Me-phenyl)-CO}-[Phe(3-Me)][aThr][Hyp][Pip]A[Pro(4R-Me)]; ester 2-C)", "Result Operator": "=", "Human (h)": 2.66}
